The origin of these recorded values is PubChem BioAssay.

test system: Neuregulin-1 EGF-like domain; experiment: binders of neuregulin-1 EGF-like domain, primary screen, biochemical, small-molecule microarray, 635 nm fluorescence (AID 1081); settings: small-molecule microarray binding, higher = more signal;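 further: binding of the protein to compounds printed on small-molecule microarray slides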
# cutoff 0.9 applies to composite z-score; >= gives class 1, < gives class 0

- Compound: "O=C(NCCO)C1=C[C@H](Oc2ccccc2I)[C@@H](O)[C@H](N(Cc2ccco2)C(=O)Cc2ccccc2)C1"
  Class: "class 0"
- Compound: "COC(=O)[C@@]1(Cc2ccccc2)N=C(c2ccc(OCCCO)cc2)O[C@H]1c1ccccc1"
  Class: "class 1"
- Compound: "C=CCNC(=O)[C@@H]1[C@H]2C(=O)O[C@H](c3ccccc3)[C@H](c3ccccc3)N2[C@H](c2ccc(O)cc2)[C@@]12C(=O)Nc1ccc(C#CCNC(N)=O)cc12"
  Class: "class 0"
- Compound: "COC(=O)[C@@]1(Cc2ccc(F)cc2)[C@H]2c3cc(C(=O)N4CCCC4)n(CCCNc4ncc(C(F)(F)F)cc4Cl)c3C[C@H]2CN1C(=O)c1ccccc1"
  Class: "class 1"
- Compound: "C=C(CCCC)/C(=C/C[C@@H](OC(=O)c1ccncc1)c1ccc(OCCO)cc1)c1cc(C(=O)OC)ccc1OC"
  Class: "class 1"
- Compound: "Cc1ccccc1C(O)C1C=CC2C(=O)N(c3ccccc3)C(=O)C2N1Nc1ccc(C(C)C)cc1 (configuration not stated)"
  Class: "class 0"

---

assay: small-molecule microarray binders of probe aCHRDL2, primary screen, biochemical, biotinylated probe, 635/667 nm fluorescence (AID 1100); settings: higher = more signal

- Molecule: "C=CCNC(=O)[C@@H]1[C@H]2C(=O)O[C@H](c3ccccc3)[C@H](c3ccccc3)N2[C@H](c2ccc(OCCO)cc2)[C@@]12C(=O)Nc1ccc(C#CCC(C(=O)OC)C(=O)OC)cc12"
  composite z-score: 0.171
- Molecule: "COc1cc(C(O)C2C=CC3C(=O)NC(=O)C3N2Nc2ccccn2)cc(OC)c1OC (configuration not stated)"
  composite z-score: 0.418
- Molecule: "C[N+](C)(C)CCCC[C@@H]1NC(=O)[C@H]2C[C@@H](C(=O)NCCCCCCNC(=O)CS)[C@@H](c3cccc(OCCO)c3)N2C1=O"
  composite z-score: 0.861
- Molecule: "CC(C)C(=C=CC[C@@H](O)c1ccc(OCCO)cc1)C[C@@H](O)c1ccccn1"
  composite z-score: -0.495
- Molecule: "C=CCC(OC(C)=O)[C@@H]1[C@@H](N(Cc2ccc(-c3ccccc3)cc2)C(=O)Cc2ccc(OC)cc2)c2cc(OCCCO)ccc2N1C(=O)Cc1ccc2ccccc2c1 (some centres not stated)"
  composite z-score: 0.308
- Molecule: "O=C(N1CCCCC1)[C@]1(Cc2ccccc2)N=C(c2ccc(OCCCO)cc2)O[C@@H]1c1ccccc1"
  composite z-score: 1.08
- Molecule: "COCCOC(=O)N1C(=O)[C@@]2(c3cc(C#CCNC(N)=O)ccc31)[C@H](C(=O)N1CCN(c3ncccn3)CC1)[C@H]1C(=O)O[C@H](c3ccccc3)[C@H](c3ccccc3)N1[C@@H]2c1ccc(OCCO)cc1"
  composite z-score: 0.329
- Molecule: "CO[C@H]1O[C@H](CO)[C@@H](OC(=O)Nc2ccc(Oc3ccccc3)cc2)[C@H](OC(=O)Nc2ccc3c(c2)OCO3)[C@H]1OC(=O)Nc1ccc2c(c1)OCO2"
  composite z-score: 0.992
- Molecule: "COc1cc2c(cc1OC)CN(C(=O)[C@H]1[C@@H]3C(=O)O[C@@H](c4ccccc4)[C@@H](c4ccccc4)N3[C@@H](c3ccc(O)cc3)[C@]13C(=O)Nc1ccccc13)CC2"
  composite z-score: -0.123
- Molecule: "COCCOC(=O)N1C(=O)[C@@]2(c3cc(C#CCCO)ccc31)[C@H](C(N)=O)[C@H]1C(=O)O[C@H](c3ccccc3)[C@H](c3ccccc3)N1[C@@H]2c1ccc(O)cc1"
  composite z-score: 0.489
- Molecule: "CCOC(=O)C[C@H]1[C@H](OC(=O)c2ccc(C(=O)c3ccccc3)cc2)[C@@H](NC(=O)c2ccccc2)c2cc(OCCCO)ccc2N1C(=O)Cc1ccc(OC)cc1"
  composite z-score: 0.586
- Molecule: "CC[C@@H]1C=C(C(=O)O)[C@H](c2ccc(Br)cc2)N1S(=O)(=O)c1ccc(C)cc1"
  composite z-score: 0.882
- Molecule: "COCCOC(=O)N1C(=O)[C@@]2(c3cc(C#CC4(O)CCCCCC4)ccc31)[C@H](c1ccc(OCCO)cc1)N1[C@H](c3ccccc3)[C@H](c3ccccc3)OC(=O)[C@H]1[C@@H]2C(=O)N1CCN(c2ncccn2)CC1"
  composite z-score: 0.107
- Molecule: "CCCCCCc1nc(-c2cc(C)c(OC)c(C)c2)cc2c1[Si](C(C)C)(C(C)C)OC2"
  composite z-score: -0.0937
- Molecule: "[N-]=[N+]=Nc1ccccc1[C@@H]1OC(c2ccc(OCCCO)cc2)=N[C@]1(Cc1ccccc1)C(=O)N1CCOCC1"
  composite z-score: 1.11
- Molecule: "O=C(OCc1ccccc1)C1=CCC2c3[nH]c4ccccc4c3C(=O)C1N2S(=O)(=O)c1ccccc1[N+](=O)[O-] (configuration not stated)"
  composite z-score: 0.381
- Molecule: "[N-]=[N+]=Nc1ccccc1[C@@H]1OC(c2ccc(OCCCO)cc2)=N[C@]1(CCS(=O)(=O)c1ccccc1)C(N)=O"
  composite z-score: 1.25
- Molecule: "CC(C)C[C@@H]1NC(=O)[C@@H]2C[C@H](C(=O)NCc3ccc(F)cc3)[C@H](c3cccc(OCCO)c3)N2C1=O"
  composite z-score: 0.0811
- Molecule: "COc1ccc(CCNC(=O)[C@@]2(C)c3ccccc3C(=O)N(C(C)C)[C@H]2c2ccc(CO)cc2)cc1"
  composite z-score: -0.0776
- Molecule: "COC(=O)C(CC#Cc1ccc2c(c1)[C@]1(C(=O)N2)[C@H](C(=O)Nc2nc3ccccc3s2)[C@H]2C(=O)O[C@H](c3ccccc3)[C@H](c3ccccc3)N2[C@@H]1c1ccc(O)cc1)C(=O)OC"
  composite z-score: 0.454
- Molecule: "CN1C(=O)C2C=CC(C(O)c3ccco3)N(Nc3ccccc3)C2C1=O (configuration not stated)"
  composite z-score: 0.338
- Molecule: "C#C[C@H](O[Si](C#Cc1ccc(Oc2ccccc2)cc1)(C(C)C)C(C)C)c1ccccc1"
  composite z-score: 0.0024
- Molecule: "C=CCC(OC(C)=O)[C@@H]1[C@@H](N(Cc2ccc(-c3cccc(C(F)(F)F)c3)o2)C(=O)c2ccc(C)cc2)c2cc(OCCCO)ccc2N1C(=O)Cc1ccc2ccccc2c1 (some centres not stated)"
  composite z-score: 0.314
- Molecule: "O=C1C[C@@](C(=O)NCCN2CCOCC2)(c2ccc([N+](=O)[O-])cc2)[C@@H](c2ccc(CO)cc2)N1CC12CC3CC(CC(C3)C1)C2"
  composite z-score: 0.638
- Molecule: "C[N+](C)(C)CCCCCCNC(=O)[C@@H]1C[C@@H]2C(=O)N[C@@H](Cc3ccccc3)C(=O)N2[C@@H]1c1cccc(OCCO)c1"
  composite z-score: 0.376
- Molecule: "O=C1c2ccccc2[C@](Cc2ccccc2I)(C(=O)NCC(F)(F)F)[C@H](c2ccc(CO)cc2)N1Cc1ccccc1Cl"
  composite z-score: 0.502
- Molecule: "O=C1c2ccccc2[C@](Cc2ccccc2I)(C(=O)NCCN2CCOCC2)[C@H](c2ccc(CO)cc2)N1Cc1ccccc1Cl"
  composite z-score: 0.732
